- protocol: Equilibrium (intrinsic) solubility of the test article in formulation mixtures, 24h, LC/MS
- measurement.parameters: 20% Gelucire 44/14 in normal saline, aqueous with cosolvent or surfactant or cyclodextrin, thermodynamic from solid
metric: solubility at 24 h (µM)

cpd.smiles	unit.tag	recorded.value
C=C(NC(=O)C(=C)NC(=O)c1csc(C2=N[C@@H]3c4csc(n4)[C@H]4NC(=O)c5csc(n5)[C@H]([C@](C)(O)[C@@H](C)O)NC(=O)[C@H]5CSC(=N5)/C(=C/C)NC(=O)[C@H]([C@@H](C)O)NC(=O)c5csc(n5)[C@]3(CC2)NC(=O)[C@H](C)NC(=O)C(=C)NC(=O)[C@H](C)NC(=O)[C@H]([C@@H](C)CC)N[C@@H]2C=Cc3c([C@H](C)O)cc(nc3[C@H]2O)C(=O)O[C@@H]4C)n1)C(N)=O	µM	1170

* * *

- protocol: Equilibrium (intrinsic) solubility of the test article in formulation mixtures, 24h, LC/MS
- measurement.parameters: 30% Labrasol in normal saline, aqueous with cosolvent or surfactant or cyclodextrin, thermodynamic from solid

cpd.smiles	solubility at 24 h
C=C(NC(=O)C(=C)NC(=O)c1csc(C2=N[C@@H]3c4csc(n4)[C@H]4NC(=O)c5csc(n5)[C@H]([C@](C)(O)[C@@H](C)O)NC(=O)[C@H]5CSC(=N5)/C(=C/C)NC(=O)[C@H]([C@@H](C)O)NC(=O)c5csc(n5)[C@]3(CC2)NC(=O)[C@H](C)NC(=O)C(=C)NC(=O)[C@H](C)NC(=O)[C@H]([C@@H](C)CC)N[C@@H]2C=Cc3c([C@H](C)O)cc(nc3[C@H]2O)C(=O)O[C@@H]4C)n1)C(N)=O	150 µM

* * *

- protocol: Equilibrium (intrinsic) solubility of the test article in formulation mixtures, 24h, LC/MS
- measurement.parameters: 10% Cremophore in normal saline, aqueous with cosolvent or surfactant or cyclodextrin, thermodynamic from solid
metric: solubility at 24 h (µM)

molecule	recorded.value
C=C(NC(=O)C(=C)NC(=O)c1csc(C2=N[C@@H]3c4csc(n4)[C@H]4NC(=O)c5csc(n5)[C@H]([C@](C)(O)[C@@H](C)O)NC(=O)[C@H]5CSC(=N5)/C(=C/C)NC(=O)[C@H]([C@@H](C)O)NC(=O)c5csc(n5)[C@]3(CC2)NC(=O)[C@H](C)NC(=O)C(=C)NC(=O)[C@H](C)NC(=O)[C@H]([C@@H](C)CC)N[C@@H]2C=Cc3c([C@H](C)O)cc(nc3[C@H]2O)C(=O)O[C@@H]4C)n1)C(N)=O [TS, Thiostrepton]	1140

* * *

- protocol: Equilibrium (intrinsic) solubility of the test article in formulation mixtures, 24h, LC/MS
- measurement.parameters: 10% Solutol HS 15 in normal saline, aqueous with cosolvent or surfactant or cyclodextrin, thermodynamic from solid
metric: solubility at 24 h (µM)

cpd.smiles	unit.tag	recorded.value
C=C(NC(=O)C(=C)NC(=O)c1csc(C2=N[C@@H]3c4csc(n4)[C@H]4NC(=O)c5csc(n5)[C@H]([C@](C)(O)[C@@H](C)O)NC(=O)[C@H]5CSC(=N5)/C(=C/C)NC(=O)[C@H]([C@@H](C)O)NC(=O)c5csc(n5)[C@]3(CC2)NC(=O)[C@H](C)NC(=O)C(=C)NC(=O)[C@H](C)NC(=O)[C@H]([C@@H](C)CC)N[C@@H]2C=Cc3c([C@H](C)O)cc(nc3[C@H]2O)C(=O)O[C@@H]4C)n1)C(N)=O	µM	520

Sourced from patent US20220080025A1
